# system tested: SMYD2 (Homo sapiens)
# Construct: Full length SMYD2 (NP_064582.2) was cloned; His6 (N, cleaved yes); FLAG (N); made in house; host or cells: Sf9 insect cells
# Sequence (Q9NRG4 whole entry): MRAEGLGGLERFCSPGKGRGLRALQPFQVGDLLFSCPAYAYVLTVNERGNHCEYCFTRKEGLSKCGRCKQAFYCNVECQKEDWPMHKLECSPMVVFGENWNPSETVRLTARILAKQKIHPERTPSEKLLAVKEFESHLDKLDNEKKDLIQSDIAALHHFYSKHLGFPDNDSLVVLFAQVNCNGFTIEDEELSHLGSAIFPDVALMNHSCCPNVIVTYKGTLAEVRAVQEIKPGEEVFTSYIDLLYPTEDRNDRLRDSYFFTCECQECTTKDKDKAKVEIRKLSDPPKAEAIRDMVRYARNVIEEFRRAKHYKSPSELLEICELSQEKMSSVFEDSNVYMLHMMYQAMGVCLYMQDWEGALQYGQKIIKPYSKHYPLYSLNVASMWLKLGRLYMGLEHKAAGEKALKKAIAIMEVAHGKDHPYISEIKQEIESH
# experiment: SMYD2 biochemical assay (3H-SAM, biotinylated peptide substrate, Flashplate)
# condition parameters: Table 3; average of n = 1 to n = 50; read-out: SMYD2 Biochem IC50
property: IC50

Worked set:
1. CC(C)N1C[C@H](C)[C@H](NC(=O)c2cc(C3CC3)ns2)C1 (racemic)    > 50 µM
2. CC(C)N1C[C@H](C)[C@H](NC(=O)c2nc(C3CC3)no2)C1 (racemic)    > 50 µM
3. CC(C)N1C[C@H](C)[C@H](NC(=O)c2nnc(C3CC3)s2)C1 (racemic)    2.68 µM
4. CC(C)N1C[C@H](C)[C@H](NC(=O)c2nccc(C3CC3)n2)C1 (racemic)    > 50 µM
5. CC(C)N1C[C@H](C)[C@H](NC(=O)c2cncc(C3CC3)c2)C1 (racemic)    > 50 µM

Request the reported IC50 associated with CC(C)N1C[C@H](C)[C@H](NC(=O)c2cc(C3CCC3)cnn2)C1 (racemic)
> 50 µM

Query: IC50; subject: CC(C)N1C[C@@H](C)[C@H](NC(=O)c2ccc(N3CCCC3)cc2)C1 (racemic)
> 50 µM

// query IC50 value for entry CC(C)N1C[C@@H](C)[C@H](NC(=O)c2cc(C3CC3)ncn2)C1 (racemic)
> 50 µM

So what's the measured IC50 for this one? CC(=O)N[C@@H]1CN(C(C)C)C[C@@H]1C (racemic)
> 50 µM

Which value of IC50 has been reported for CC(C)N1C[C@H](C)[C@H](NC(=O)c2nnc(C3CC3)o2)C1 (racemic) in the records?
4.64 µM

Reported IC50, molecule CC(C)N1C[C@@H](C)[C@H](NC(=O)c2nnc(C3CC3)o2)C1 (racemic) : ____
26.8 µM

Field request: IC50 | item: CC(C)c1cnnc(C(=O)N[C@@H]2CN(C(C)C)C[C@@H]2C)c1 (racemic)
10.4 µM

Record request: IC50 value, item CC(C)N1C[C@H](C)[C@H](NC(=O)c2coc(C3CC3)n2)C1 (racemic)
> 50 µM

Endpoint output: IC50 of CCN1C[C@H](C)[C@H](NC(=O)c2cc(C3CC3)cnn2)C1 (racemic) . Value?
0.611 µM

Quick one: IC50 of CC(C)N1C[C@H](C)[C@H](NC(=O)c2cncc(C3CC3)n2)C1 (racemic) ?
> 50 µM

Using the record for CC(C)N1C[C@@H](C)[C@H](NC(=O)c2ccc3c(c2)OCC(=O)N3)C1 (racemic) , report its IC50.
> 50 µM

Entry CC(C)N1C[C@@H](C)[C@H](NC(=O)c2cn(C3CC3)nn2)C1 (racemic) : reported IC50 = ?
19.3 µM

For CC(C)N1C[C@@H](C)[C@H](NC(=O)c2cnc(C3CC3)cn2)C1 (racemic) , what is its reported IC50?
> 50 µM

Query (molecule): CC(C)N1C[C@@H](C)[C@H](NC(=O)c2cc(C3CC3)[nH]n2)C1 (racemic) ; field requested: IC50
> 50 µM

Value lookup for IC50; key = CC(C)N1C[C@H](C)[C@H](NC(=O)c2cc(C3CC3)[nH]n2)C1 (racemic)
> 50 µM
